Biological target: T1, Macaca fascicularis IL-36R on cells (Macaca fascicularis, UniProt A0A2K5WSK9 20-558)
T1 sequence: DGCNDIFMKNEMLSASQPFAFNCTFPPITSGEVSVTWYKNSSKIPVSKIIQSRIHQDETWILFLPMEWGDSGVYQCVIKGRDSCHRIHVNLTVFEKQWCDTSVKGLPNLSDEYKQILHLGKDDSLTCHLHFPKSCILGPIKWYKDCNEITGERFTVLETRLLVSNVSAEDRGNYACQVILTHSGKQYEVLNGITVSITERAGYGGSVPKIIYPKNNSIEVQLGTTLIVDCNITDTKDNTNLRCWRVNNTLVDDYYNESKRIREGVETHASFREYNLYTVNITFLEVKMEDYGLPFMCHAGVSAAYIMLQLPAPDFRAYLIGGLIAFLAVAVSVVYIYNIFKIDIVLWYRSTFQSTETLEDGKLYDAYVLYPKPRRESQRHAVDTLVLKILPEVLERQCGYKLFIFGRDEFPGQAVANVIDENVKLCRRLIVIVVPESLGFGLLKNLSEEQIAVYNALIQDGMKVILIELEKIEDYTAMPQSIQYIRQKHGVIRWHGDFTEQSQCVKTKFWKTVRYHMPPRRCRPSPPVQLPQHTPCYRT
Assay: cell-based or functional assay
EXPERIMENTAL ENDPOINT: Max Inhibition (%), NFκB-luciferase, 600 pM hIL-36β
Units required after the number.

binder="H4H14731P (antibody, human IgG4 S228P, kappa, V domains shown) VH: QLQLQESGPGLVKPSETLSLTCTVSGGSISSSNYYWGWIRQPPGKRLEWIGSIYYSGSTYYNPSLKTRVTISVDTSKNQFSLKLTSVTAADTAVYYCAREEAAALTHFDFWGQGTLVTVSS VL: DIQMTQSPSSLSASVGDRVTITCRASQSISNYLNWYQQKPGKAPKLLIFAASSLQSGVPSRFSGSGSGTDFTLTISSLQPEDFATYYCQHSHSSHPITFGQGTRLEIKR" experimental_result=78%

In one line, give reported Max Inhibition (%), NFκB-luciferase, 600 pM hIL-36β of the entry H4H14706P2 (antibody, human IgG4 S228P, kappa, V domains shown) VH: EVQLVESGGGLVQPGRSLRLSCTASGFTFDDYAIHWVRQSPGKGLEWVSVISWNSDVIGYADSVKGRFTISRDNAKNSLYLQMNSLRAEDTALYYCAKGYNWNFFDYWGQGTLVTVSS VL: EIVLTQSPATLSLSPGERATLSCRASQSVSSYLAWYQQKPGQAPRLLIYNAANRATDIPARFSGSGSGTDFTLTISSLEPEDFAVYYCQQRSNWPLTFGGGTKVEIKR . 100%

In one line, give reported Max Inhibition (%), NFκB-luciferase, 600 pM hIL-36β of the entry H4H14699P2 (antibody, human IgG4 S228P, kappa, V domains shown, Fully human anti-IL-36R antibody) VH: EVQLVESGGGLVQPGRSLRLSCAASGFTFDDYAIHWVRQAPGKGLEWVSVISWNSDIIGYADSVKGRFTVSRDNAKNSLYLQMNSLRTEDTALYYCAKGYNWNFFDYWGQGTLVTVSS VL: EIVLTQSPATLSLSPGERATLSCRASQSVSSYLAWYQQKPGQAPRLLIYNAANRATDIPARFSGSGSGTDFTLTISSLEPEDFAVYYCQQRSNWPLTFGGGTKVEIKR . 98%

In one line, give reported Max Inhibition (%), NFκB-luciferase, 600 pM hIL-36β of the entry H4H14728P (antibody, human IgG4 S228P, kappa, V domains shown) VH: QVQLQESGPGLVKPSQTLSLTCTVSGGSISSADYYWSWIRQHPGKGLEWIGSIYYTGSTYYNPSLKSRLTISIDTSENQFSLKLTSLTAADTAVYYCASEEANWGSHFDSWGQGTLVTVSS VL: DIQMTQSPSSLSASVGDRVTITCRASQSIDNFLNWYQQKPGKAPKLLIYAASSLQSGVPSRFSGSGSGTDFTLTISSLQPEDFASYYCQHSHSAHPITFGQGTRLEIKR . 95%
